test system: E. faecalis ATCC29212; assay: MIC, microdilution broth method (NCCLS); assay type: cell-based; conditions: C: E. faecalis ATCC29212, 35° C., 16-20 hours
Recorded metric: MIC (µg/mL)

{"columns": ["Compound", "MIC [µg/mL]"],
 "data": [
  ["CC[C@H]1OC(=O)[C@H](C)C(=O)[C@H](C)[C@@H](O[C@@H]2O[C@H](C)C[C@H](N(C)C)[C@H]2O)[C@](C)(OC(=O)NCc2ccc(-c3ccccn3)s2)C[C@@H](C)C(=O)[C@H](C)[C@H]2NC(=O)O[C@@]21C", 0.06],
  ["CC[C@H]1OC(=O)[C@H](C)C(=O)[C@H](C)[C@@H](O[C@@H]2O[C@H](C)C[C@H](N(C)C)[C@H]2O)[C@](C)(OC(N)=O)C[C@@H](C)C(=O)[C@H](C)[C@H]2NC(=O)O[C@@]21C", 1],
  ["CC[C@H]1OC(=O)[C@H](C)C(=O)[C@H](C)[C@@H](O[C@@H]2O[C@H](C)C[C@H](N(C)C)[C@H]2O)[C@](C)(OC(=O)NC/C=C/c2ccc(-n3cccn3)cc2)C[C@@H](C)C(=O)[C@H](C)[C@H]2NC(=O)O[C@@]21C", 0.06],
  ["CCC1OC(=O)C(C)(F)C(=O)C(C)C(OC2OC(C)CC(N(C)C)C2O)C(C)(OC(=O)NCC=Cc2ccc(-c3ncccn3)cc2)CC(C)C(=NO)C(C)C2NC(=O)OC12C (centres unmarked)", 0.12]
]}

I. CC[C@H]1OC(=O)[C@H](C)C(=O)[C@H](C)[C@@H](O[C@@H]2O[C@H](C)C[C@H](N(C)C)[C@H]2O)[C@](C)(OC(=O)NC/C=C/c2ccc(-n3cncn3)c(F)c2)C[C@@H](C)C(=O)[C@H](C)[C@H]2NC(=O)O[C@@]21C
II. CC[C@H]1OC(=O)[C@H](C)C(=O)[C@H](C)[C@@H](O[C@@H]2O[C@H](C)C[C@H](N(C)C)[C@H]2O)[C@](C)(OC(=O)NC/C=C/c2ccc([N+](=O)[O-])cc2)C[C@@H](C)C(=O)[C@H](C)[C@H]2NC(=O)O[C@@]21C
Could you check which of I and II has a smaller value for MIC? Give the label of your selection.
II
(II: 0.06 µg/mL, I: 0.12 µg/mL)

* * *

tested on: E. coli OC2605; assay: MIC, microdilution broth method (NCCLS); assay type: cell-based; settings: A: E. coli OC2605, 35° C., 16-20 hours
Recorded metric: MIC (µg/mL)

1. CC[C@H]1OC(=O)[C@H](C)C(=O)[C@H](C)[C@@H](O[C@@H]2O[C@H](C)C[C@H](N(C)C)[C@H]2O)[C@](C)(OC(=O)NC/C=C/c2cncc3ccccc23)C[C@@H](C)C(=O)[C@H](C)[C@H]2NC(=O)O[C@@]21C
2. CC[C@H]1OC(=O)[C@H](C)C(=O)[C@H](C)[C@@H](O[C@@H]2O[C@H](C)C[C@H](N(C)C)[C@H]2O)[C@](C)(OC(=O)NC/C=C/c2ccc3cccnc3c2)C[C@@H](C)C(=O)[C@H](C)[C@H]2NC(=O)O[C@@]21C
Name the one with the greater MIC value, either 1 or 2 as given. Give the label of your selection.
2
(2: 16 µg/mL, 1: 8 µg/mL)

Sourced from patent US6613747B2
